Reference source: patent US8377945B2

The entries below come with measured IC50 values attached.
studySystem: Syk kinase (Homo sapiens)
assayName: ELISA-based Syk kinase assay (phosphorylation of HS1 peptide substrate by isolated Syk kinase)
conditionsUsed: IC50 of Syk kinase inhibition; 2 μM ATP, 2 μM peptide substrate
Experimental: Compounds were tested for the ability to inhibit Syk kinase catalyzed phosphorylation of a peptide substrate in an assay with isolated Syk kinase. An assay was carried out in a Costar white 96 well plate (Fisher Scientific, Cat No. 07-200-591) coated overnight with 0.01 mg/ml Neutravidin (Pierce, 100 μl/well) at 4° C. Neutravidin pre-coated 96 well plates were blocked with 2% BSA in PBST buffer for at least 1 hour before starting the assay at room temperature. […]

Observe how each entry below is paired with its result.
- structureAsSmiles: "COc1ccc(Nc2c(-c3cc(F)c(F)c(F)c3)[nH]c3c(C#N)cnn23)cc1OC"
  measure: "IC50"
  result: "3 to 25 µM"
- structureAsSmiles: "COc1ccc(CCNc2c(-c3cc(OC)c(OC)c(OC)c3)[nH]c3c(C#N)cnn23)cc1OC"
  measure: "IC50"
  result: "> 25 µM"
- structureAsSmiles: "COc1cc(Nc2c(-c3cc(OC)c(OC)c(OC)c3)[nH]c3c(C#N)cnn23)cc(OC)c1OC"
  measure: "IC50"
  result: "3 to 25 µM"
- structureAsSmiles: "COc1cc(-c2[nH]c3c(C#N)cnn3c2Nc2ccc(CNC(=O)OC(C)(C)C)cc2)cc(OC)c1OC"
  measure: "IC50"
  result: "0.51 to 2.99 µM"
- structureAsSmiles: "COc1cc(Nc2c(-c3ccc(N4CCOCC4)cc3)[nH]c3c(C#N)cnn23)cc(OC)c1OC"
  measure: "IC50"
  result: "3 to 25 µM"

-- ask Input N#Cc1cccc(Nc2c(-c3ccc4c(c3)NC(=O)CO4)[nH]c3c(C#N)cnn23)c1 , output reported IC50.
-- reply 3 to 25 µM

-- ask Specify reported IC50 for the compound shown: CCOc1cc(Nc2c(-c3cc(OC)c(OC)c(OC)c3)[nH]c3c(C#N)cnn23)ccc1F
-- reply 0.51 to 2.99 µM

-- ask Return value of IC50 for input COc1cc(-c2[nH]c3c(C#N)cnn3c2Nc2ccc(CNC(C)=O)cc2)cc(OC)c1OC , no commentary.
-- reply 0.51 to 2.99 µM
